target: recombinant human TFPI (tissue factor pathway inhibitor) (human, UniProt P10646 29-304); assay: cell-based or functional assay
Property Name: A405, TF/FVIIa/FX complex assay (FX 5 nM), Ab 3.13 nM

q: Looking for the measured A405, TF/FVIIa/FX complex assay (FX 5 nM), Ab 3.13 nM of clone 8 (antibody, V domains shown) VH: EVQLVESGGGLVKPGGSLRLSCAASGFTFSSYAMNWVRQAPGKGLEWVSTITTGGSYTYYADSVEGRFTISRDNAKNSLYLQMNSLRAEDTAVYYCARQDGNFLMDYWGQGTLVTVSS VL: DVVMTQTPLSLPVTLGQPASISCKSSPSLLDVDGKTYLNWLQQRPGQSPKRLIYLVSKLDSGVPDRFTGSGSGTDFTLKISRVEAEDVGVYYCWQGTHFPFTFGQGTKVEIKR , can you help?
a: 0.05

q: Looking for the measured A405, TF/FVIIa/FX complex assay (FX 5 nM), Ab 3.13 nM of clone 2 (antibody, V domains shown) VH: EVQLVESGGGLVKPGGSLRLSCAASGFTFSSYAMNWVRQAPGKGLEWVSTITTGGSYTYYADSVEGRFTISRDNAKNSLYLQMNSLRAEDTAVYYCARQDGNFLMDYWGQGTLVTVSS VL: DVVMTQTPLSLPVTLGQPASISCKSSPSLLDIDGKTYLNWLQQRPGQSPKRLIYLVSKLDSGVPDRFTGSGSGTDFTLKISRVEAEDVGVYYCWQGTHFPFTFGQGTKVEIKR , can you help?
a: 0.045

q: Looking for the measured A405, TF/FVIIa/FX complex assay (FX 5 nM), Ab 3.13 nM of clone 3 (antibody, V domains shown) VH: EVQLVESGGGLVKPGGSLRLSCAASGFTFSSYAMNWVRQAPGKGLEWVGTITTGGSHTYYADSVDGRFTISRDNAKNSLYLQMNSLRAEDTAVYYCARQDGNFLMDYWGQGTLVTVSS VL: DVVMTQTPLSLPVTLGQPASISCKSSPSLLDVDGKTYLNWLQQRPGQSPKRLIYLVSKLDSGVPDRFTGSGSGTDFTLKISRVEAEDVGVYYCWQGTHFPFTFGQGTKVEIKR , can you help?
a: 0.046

q: Looking for the measured A405, TF/FVIIa/FX complex assay (FX 5 nM), Ab 3.13 nM of clone 1023 (antibody, V domains shown, scFv on yeast at selection; human IgG4/kappa IgG as purified) VH: EVQLVESGGGLVKPGGSLRLSCAASGFTFSSYAMNWVRQAPGKGLEWVGTITTGGSYTYYADSVDGRFTISRDNAKNSLYLQMNSLRAEDTAVYYCARQDGNFLMDYWGQGTLVTVSS VL: DVVMTQTPLSLPVTLGQPASISCKSSQSLLDIDGKTYLNWLQQRPGQSPKRLIYLVSKLDSGVPDRFTGSGSGTDFTLKISRVEAEDVGVYYCWQGTHFPFTFGQGTKVEIKR , can you help?
a: 0.048
